From: BigSolDB 2.1

Settings: in tetrachloromethane, 323.15 K
measurementKind: solubility (mole fraction)

- smilesEntry: "O=[N+]([O-])c1cc(F)c(F)cc1[N+](=O)[O-]"
  measurementKind: "solubility (mole fraction)"
  numericResult: 0.000426

---

Settings: in chloroform, 313.15 K
measurementKind: solubility (mole fraction)

- smilesEntry: "O=[N+]([O-])c1cc(F)c(F)cc1[N+](=O)[O-]"
  numericResult: 0.00237

---

Conditions: in p-xylene, 333.15 K
measurementKind: solubility (mole fraction)

- smilesEntry: "O=[N+]([O-])c1cc(F)c(F)cc1[N+](=O)[O-]"
  measurementKind: "solubility (mole fraction)"
  numericResult: 0.0085
